- TEST_METHOD_NOTES: protein stability index of a GFP-peptide fusion (GPS, HEK-293T) (PSI 1-6); higher = more stable;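 also: 24-mer peptide tiles fused after GFP, lentivirally expressed, FACS-sorted into six equal bins by GFP/DsRed ratio, decoded by Illumina sequencing, PSI is the read-weighted mean bin number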
- ASSAY_SETUP: treatment: DMSO; c terminus: a fixed tail appended
Reported protein stability index values for the following sequences.

Record excerpt, results attached:
• ISGREVFEFRPELVNDDDEEADDT [ZC3H15] = 5.51
• IKVEQATKPSFESGRRGPPPPPRS [RBMX] = 4.06

Request the reported protein stability index associated with TVANDVMLRTGLGVIRMWADEGSR [NETO1]
2.61

Which protein stability index is reported for this sequence? VSKELRMYDEKAHEWKSLAPMDAP [KLHL13]
3.73

I'd like to know its protein stability index. The sequence in question is IKPSNIFISRTSIPNAASEEGDED [WEE1]
4.71

Can you share its protein stability index? I mean this sequence: GPESPPPPYSRLSPRDEYKPLDLS [SMAD6]
4.67

Given the sequence LAVSRPRSSPDDLKALTRNVNRLN [SCARA5] , what is its reported protein stability index?
3.82

Fill in: protein stability index of ASALTLVLGGRRLRRAWFSWPRAS [SCNN1D] is ___
2.13

If you can, please state the reported protein stability index value of GRRYEAVKWMVVFAIGVCTGLVGL [CLCN6] .
3.33

Sample GVRSREDAQGSEMVTCKSEFYHDE [GAN] — what was its protein stability index?
5.22

I have this sequence here, DVAEGYRKLSLKGHNDWVMDVAIS [WDR88] , and I need its recorded protein stability index.
2.47

Which protein stability index is reported for this sequence? LPSRPPPLLSPLLASRNPCPWHYL [RSPH3]
2.27

Given LYGGMNYRRLGGGVGVIKMTHCES [KLHL20] , state its recorded protein stability index.
2.3

Name the reported protein stability index value associated with the sequence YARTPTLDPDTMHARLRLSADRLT [TRIM14]
2.91

# protein stability index lookup, item AGFAQLTHLLMGLAGGKLILSLEG [HDAC6]
3.56

Which measured protein stability index value corresponds to TKLRLERVKFRRQEANARERNRMH [NEUROD6] ?
3.67

Looking for the measured protein stability index of PDKESMYYPRVQHYRELLDSLPMD [GDAP1] , can you help?
3.38

Bench note: what protein stability index did MAEASATGACGEAMAAAEGSSGPA [SEPHS2] show?
5.44

I would be grateful if you could share the reported protein stability index for AGGTSDDPEPSGPHLPRVMLPGVL [SCNN1D] .
4.14

So what does the record say about protein stability index for MRDRHVNMHLNLRPFDCPVCNKKF [ZBTB22] ?
2.99

What does the record list as protein stability index for AGLEDEDVIIEVNGVNVLDEPYEK [PDZK1] ?
5.05

// query protein stability index value for entry YGKDIVKACSLLDVAVHMPCLGHT [ZBED1]
2.14

Fill blank: measured protein stability index of the sequence GPEDLSYQIYDVSGESNSAVSTED [LARP4] is ____.
5.39

Quick one: protein stability index of GGQESSGLNLGKKISVPRDVMLEE [MYOZ1] ?
5.07

Suppose we examine the sequence ESIAHIGDVMFTGTADGRVVKLEN [APMAP] ; what protein stability index value has been reported?
4.11

Need protein stability index, item EGNALQGPILQKDYVQLENQWETP [ZNF449]
4.86

Given the sequence VGVATADAPLHSVGYTTLVGNNHE [SPSB1] , what is its reported protein stability index?
4.25
